Protein target, amino acids: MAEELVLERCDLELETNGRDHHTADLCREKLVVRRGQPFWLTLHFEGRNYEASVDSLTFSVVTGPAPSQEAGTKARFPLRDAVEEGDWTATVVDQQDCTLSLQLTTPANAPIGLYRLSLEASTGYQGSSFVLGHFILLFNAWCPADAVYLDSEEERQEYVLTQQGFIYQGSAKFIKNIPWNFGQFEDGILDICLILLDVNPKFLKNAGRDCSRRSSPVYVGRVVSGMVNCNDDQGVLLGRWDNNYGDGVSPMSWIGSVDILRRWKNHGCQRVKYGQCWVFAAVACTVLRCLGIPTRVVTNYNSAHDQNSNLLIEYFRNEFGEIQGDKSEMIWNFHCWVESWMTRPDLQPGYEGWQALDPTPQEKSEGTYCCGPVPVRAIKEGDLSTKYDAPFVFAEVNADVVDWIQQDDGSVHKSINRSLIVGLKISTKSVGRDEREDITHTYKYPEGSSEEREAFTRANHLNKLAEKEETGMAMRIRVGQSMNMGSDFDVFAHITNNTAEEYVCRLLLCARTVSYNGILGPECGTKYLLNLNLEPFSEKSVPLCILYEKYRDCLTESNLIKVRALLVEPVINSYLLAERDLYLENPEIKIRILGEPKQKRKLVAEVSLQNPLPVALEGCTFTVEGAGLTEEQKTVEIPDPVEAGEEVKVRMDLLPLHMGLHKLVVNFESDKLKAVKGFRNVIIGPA
measurement.type: pKi
One number for each entry, as −log10 of the molar value.

Some solved entries appear below for comparison.
[[record]]
compound = "O=C(N[C@@H](Cc1ccccc1)C(=O)NCC1CC(Br)=NO1)OCC1=Cc2ccccc2S1(=O)=O (some centres undefined) [Dihydroisoxazole, 3f]"
reported = 4.06

[[record]]
compound = "O=C(N[C@@H](Cc1c[nH]c2ccc(O)cc12)C(=O)NCC1CC(Br)=NO1)OCc1ccccc1 (some centres undefined) [Dihydroisoxazole, 1f]"
reported = 3.51

[[record]]
compound = "O=C(N[C@@H](Cc1ccccc1)C(=O)NCC1CC(Br)=NO1)OCCc1ccccc1 (some centres undefined) [Dihydroisoxazole, 3d]"
reported = 4.21


Consider the record given below.
So what does the record say about pKi for O=C(N[C@@H](Cc1ccccc1)C(=O)NCC1CC(Br)=NO1)Oc1ccc2ccccc2c1 (some centres undefined) [Dihydroisoxazole, 3e] ?
4.37
